Assay: Rat single dose PK study
Type: in vivo
Conditions: Wistar, plasma, oral, 1 mg/kg, 4 h, total, read-out: Plasma concentration at 4 h
REPORTED_ENDPOINT: concentration at 4 h (ng/mL)

| COMPOUND_STRUCTURE | REPORTED_ENDPOINT | RESULT_VALUE |
| --- | --- | --- |
| C[C@]1(c2nc(NC(=O)c3ccc(C#N)cn3)ccc2F)N=C(N)O[C@H](C(F)(F)F)[C@@H]1F | concentration at 4 h | 85 |

###

# bioavailability per record follows
Assay: Cynomolgus monkey single dose PK study
Format: in vivo, Cynomolgus monkey (Macacaca fascicularis)
Details: plasma, po, read-out: Oral Bioavailability F

| COMPOUND | bioavailability [%] |
| --- | --- |
| Cc1cc(C#N)cnc1C(=O)Nc1ccc(F)c([C@@]2(C)N=C(N)O[C@H](C(F)(F)F)[C@@H]2F)n1 [Example 1] | 52 |
| C[C@]1(c2nc(NC(=O)c3ccc(C#N)cn3)ccc2F)N=C(N)O[C@H](C(F)(F)F)[C@@H]1F [Comparator 6] | 63 |
